target: Protein polybromo-1 (Homo sapiens); assay: Binding affinity to human PB1 isoform 5 expressed in BL21 (DE3)-R3-BirA cells by isothermal titration calorimetry
Sequence (Q86U86 whole entry, canonical isoform): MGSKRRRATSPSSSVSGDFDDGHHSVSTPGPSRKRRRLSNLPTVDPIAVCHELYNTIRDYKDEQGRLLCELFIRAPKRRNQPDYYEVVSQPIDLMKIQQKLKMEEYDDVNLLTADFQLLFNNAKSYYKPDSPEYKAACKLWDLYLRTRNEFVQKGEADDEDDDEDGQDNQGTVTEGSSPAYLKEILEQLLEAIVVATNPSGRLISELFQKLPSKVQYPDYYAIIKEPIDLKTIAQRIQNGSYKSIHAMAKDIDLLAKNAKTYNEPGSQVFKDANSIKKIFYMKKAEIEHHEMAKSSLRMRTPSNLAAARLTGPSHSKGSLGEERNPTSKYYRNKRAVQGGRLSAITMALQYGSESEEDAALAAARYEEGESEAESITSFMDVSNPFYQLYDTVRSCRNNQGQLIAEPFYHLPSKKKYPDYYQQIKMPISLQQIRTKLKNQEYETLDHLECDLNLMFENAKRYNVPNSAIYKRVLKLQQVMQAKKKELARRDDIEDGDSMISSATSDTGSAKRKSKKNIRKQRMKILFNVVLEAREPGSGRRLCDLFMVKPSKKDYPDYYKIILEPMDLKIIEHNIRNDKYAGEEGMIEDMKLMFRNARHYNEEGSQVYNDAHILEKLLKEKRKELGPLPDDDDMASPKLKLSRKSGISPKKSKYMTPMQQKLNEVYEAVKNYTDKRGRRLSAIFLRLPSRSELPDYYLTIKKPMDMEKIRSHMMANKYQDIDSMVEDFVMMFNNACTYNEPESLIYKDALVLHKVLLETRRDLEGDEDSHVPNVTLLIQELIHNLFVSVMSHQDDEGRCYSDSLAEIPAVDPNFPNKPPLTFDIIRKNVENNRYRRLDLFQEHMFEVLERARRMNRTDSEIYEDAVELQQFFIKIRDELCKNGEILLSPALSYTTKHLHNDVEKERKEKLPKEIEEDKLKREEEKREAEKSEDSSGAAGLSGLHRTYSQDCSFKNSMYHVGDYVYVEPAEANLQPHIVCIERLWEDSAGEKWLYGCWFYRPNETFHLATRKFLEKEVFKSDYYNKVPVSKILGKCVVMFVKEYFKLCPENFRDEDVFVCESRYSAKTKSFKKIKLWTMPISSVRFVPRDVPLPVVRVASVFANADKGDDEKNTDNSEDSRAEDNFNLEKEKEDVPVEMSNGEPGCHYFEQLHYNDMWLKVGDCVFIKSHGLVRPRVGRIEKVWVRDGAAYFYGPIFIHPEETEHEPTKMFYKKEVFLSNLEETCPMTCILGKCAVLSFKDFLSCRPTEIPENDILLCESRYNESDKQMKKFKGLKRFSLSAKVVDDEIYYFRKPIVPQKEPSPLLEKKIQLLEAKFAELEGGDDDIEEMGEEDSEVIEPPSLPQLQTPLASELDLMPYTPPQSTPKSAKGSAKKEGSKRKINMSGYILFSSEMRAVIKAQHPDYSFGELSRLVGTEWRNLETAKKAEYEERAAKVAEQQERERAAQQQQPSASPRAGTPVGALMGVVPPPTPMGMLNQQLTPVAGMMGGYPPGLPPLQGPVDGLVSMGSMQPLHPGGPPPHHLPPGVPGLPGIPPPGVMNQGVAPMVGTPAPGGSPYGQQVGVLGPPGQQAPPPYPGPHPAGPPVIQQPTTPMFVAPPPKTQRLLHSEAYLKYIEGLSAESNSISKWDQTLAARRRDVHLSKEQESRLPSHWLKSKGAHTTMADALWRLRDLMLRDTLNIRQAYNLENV

- structure string: "O=C(/C=C/N1CCc2c(ncnc2NC2CC2)C1)c1ccccc1O"
  Kd, nM: 28

###

biological target: SWI/SNF-related matrix-associated actin-dependent regulator of chromatin subfamily A member 4 (Homo sapiens); assay: Binding affinity to human SMARCA4 expressed in BL21 (DE3)-R3-BirA cells by isothermal titration calorimetry
Sequence (P51532 whole entry): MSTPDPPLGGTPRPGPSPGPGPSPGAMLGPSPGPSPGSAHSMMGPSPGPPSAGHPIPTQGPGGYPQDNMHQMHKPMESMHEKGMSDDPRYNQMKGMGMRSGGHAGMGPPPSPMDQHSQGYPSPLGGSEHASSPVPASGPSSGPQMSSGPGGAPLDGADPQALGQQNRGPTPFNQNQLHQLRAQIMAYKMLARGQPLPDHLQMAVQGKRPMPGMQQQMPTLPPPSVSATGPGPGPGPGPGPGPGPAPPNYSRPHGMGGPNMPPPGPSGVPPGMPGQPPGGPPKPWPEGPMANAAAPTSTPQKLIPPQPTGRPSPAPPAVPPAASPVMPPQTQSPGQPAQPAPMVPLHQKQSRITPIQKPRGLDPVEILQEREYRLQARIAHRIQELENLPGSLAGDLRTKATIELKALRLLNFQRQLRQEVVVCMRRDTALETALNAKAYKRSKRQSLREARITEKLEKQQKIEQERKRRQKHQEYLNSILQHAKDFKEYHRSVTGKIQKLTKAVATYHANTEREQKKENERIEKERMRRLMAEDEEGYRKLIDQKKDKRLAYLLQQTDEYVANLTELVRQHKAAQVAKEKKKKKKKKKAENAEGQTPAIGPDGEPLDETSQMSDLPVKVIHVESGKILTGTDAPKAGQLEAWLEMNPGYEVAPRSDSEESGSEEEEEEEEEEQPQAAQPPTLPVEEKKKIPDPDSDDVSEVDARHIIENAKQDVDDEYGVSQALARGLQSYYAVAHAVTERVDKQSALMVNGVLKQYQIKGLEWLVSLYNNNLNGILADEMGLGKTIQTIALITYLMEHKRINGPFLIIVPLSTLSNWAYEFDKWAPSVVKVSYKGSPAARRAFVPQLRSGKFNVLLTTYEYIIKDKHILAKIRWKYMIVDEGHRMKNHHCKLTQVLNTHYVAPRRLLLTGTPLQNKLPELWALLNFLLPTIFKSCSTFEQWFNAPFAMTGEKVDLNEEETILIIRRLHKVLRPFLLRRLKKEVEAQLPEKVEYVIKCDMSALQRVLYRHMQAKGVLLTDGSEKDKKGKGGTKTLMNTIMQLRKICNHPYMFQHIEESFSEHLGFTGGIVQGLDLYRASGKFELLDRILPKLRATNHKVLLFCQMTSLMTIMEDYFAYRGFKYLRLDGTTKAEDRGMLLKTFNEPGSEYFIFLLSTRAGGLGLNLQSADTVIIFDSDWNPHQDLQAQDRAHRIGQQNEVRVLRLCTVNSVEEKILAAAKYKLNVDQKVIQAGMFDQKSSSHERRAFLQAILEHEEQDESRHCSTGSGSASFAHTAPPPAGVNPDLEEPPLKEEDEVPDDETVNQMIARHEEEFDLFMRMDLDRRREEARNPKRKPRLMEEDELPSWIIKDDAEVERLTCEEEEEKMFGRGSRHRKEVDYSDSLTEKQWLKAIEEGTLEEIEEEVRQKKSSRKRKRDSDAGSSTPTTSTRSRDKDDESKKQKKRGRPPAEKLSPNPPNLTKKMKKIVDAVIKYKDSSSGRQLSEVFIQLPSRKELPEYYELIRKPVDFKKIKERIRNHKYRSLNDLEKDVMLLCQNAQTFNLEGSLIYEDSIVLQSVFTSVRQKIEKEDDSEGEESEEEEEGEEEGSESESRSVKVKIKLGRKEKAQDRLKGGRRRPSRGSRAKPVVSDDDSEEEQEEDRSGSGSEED

- structure string: "O=C(/C=C/N1CCc2c(ncnc2NC2CC2)C1)c1ccccc1O"
  Kd / µM: 0.049

###

target: Protein polybromo-1 (Homo sapiens); assay: Binding affinity to human PB1 isoform 3 expressed in BL21 (DE3)-R3-BirA cells assessed as change in melting temperature at 10 uM by sypro-orange dye-based differential scanning fluorimetric analysis; format: cell-based
The compounds listed here are annotated with their ΔTm.
quantity name: ΔTm

- structure string: "O=C(/C=C/N1[C@H]2CC[C@@H]1c1ncnc(NC3CC3)c1C2)c1ccccc1O"
  result: "6.4 °C"
- structure string: "O=C(/C=C/N1CCN(c2cccc(OCc3ccncc3)n2)CC1)c1ccccc1O"
  result: "0.7 °C"
- structure string: "CN(C)/C=C/C(=O)c1ccccc1O"
  result: "0.5 °C"
- structure string: "O=C(/C=C/N1CCC(c2cc[nH]n2)CC1)c1ccccc1O"
  result: "1.8 °C"
- structure string: "O=C(/C=C/N1CCc2c(ccnc2N[C@H]2CC[C@H](O)CC2)C1)c1ccccc1O"
  result: "1.1 °C"
- structure string: "O=C(/C=C/N1CCCC1)c1ccccc1O"
  result: "1.1 °C"

###

molecular target: SWI/SNF-related matrix-associated actin-dependent regulator of chromatin subfamily A member 2 (Homo sapiens); experiment: Binding affinity to human SMARCA2 expressed in BL21 (DE3)-R3-BirA cells by isothermal titration calorimetry
Sequence (P51531 whole entry): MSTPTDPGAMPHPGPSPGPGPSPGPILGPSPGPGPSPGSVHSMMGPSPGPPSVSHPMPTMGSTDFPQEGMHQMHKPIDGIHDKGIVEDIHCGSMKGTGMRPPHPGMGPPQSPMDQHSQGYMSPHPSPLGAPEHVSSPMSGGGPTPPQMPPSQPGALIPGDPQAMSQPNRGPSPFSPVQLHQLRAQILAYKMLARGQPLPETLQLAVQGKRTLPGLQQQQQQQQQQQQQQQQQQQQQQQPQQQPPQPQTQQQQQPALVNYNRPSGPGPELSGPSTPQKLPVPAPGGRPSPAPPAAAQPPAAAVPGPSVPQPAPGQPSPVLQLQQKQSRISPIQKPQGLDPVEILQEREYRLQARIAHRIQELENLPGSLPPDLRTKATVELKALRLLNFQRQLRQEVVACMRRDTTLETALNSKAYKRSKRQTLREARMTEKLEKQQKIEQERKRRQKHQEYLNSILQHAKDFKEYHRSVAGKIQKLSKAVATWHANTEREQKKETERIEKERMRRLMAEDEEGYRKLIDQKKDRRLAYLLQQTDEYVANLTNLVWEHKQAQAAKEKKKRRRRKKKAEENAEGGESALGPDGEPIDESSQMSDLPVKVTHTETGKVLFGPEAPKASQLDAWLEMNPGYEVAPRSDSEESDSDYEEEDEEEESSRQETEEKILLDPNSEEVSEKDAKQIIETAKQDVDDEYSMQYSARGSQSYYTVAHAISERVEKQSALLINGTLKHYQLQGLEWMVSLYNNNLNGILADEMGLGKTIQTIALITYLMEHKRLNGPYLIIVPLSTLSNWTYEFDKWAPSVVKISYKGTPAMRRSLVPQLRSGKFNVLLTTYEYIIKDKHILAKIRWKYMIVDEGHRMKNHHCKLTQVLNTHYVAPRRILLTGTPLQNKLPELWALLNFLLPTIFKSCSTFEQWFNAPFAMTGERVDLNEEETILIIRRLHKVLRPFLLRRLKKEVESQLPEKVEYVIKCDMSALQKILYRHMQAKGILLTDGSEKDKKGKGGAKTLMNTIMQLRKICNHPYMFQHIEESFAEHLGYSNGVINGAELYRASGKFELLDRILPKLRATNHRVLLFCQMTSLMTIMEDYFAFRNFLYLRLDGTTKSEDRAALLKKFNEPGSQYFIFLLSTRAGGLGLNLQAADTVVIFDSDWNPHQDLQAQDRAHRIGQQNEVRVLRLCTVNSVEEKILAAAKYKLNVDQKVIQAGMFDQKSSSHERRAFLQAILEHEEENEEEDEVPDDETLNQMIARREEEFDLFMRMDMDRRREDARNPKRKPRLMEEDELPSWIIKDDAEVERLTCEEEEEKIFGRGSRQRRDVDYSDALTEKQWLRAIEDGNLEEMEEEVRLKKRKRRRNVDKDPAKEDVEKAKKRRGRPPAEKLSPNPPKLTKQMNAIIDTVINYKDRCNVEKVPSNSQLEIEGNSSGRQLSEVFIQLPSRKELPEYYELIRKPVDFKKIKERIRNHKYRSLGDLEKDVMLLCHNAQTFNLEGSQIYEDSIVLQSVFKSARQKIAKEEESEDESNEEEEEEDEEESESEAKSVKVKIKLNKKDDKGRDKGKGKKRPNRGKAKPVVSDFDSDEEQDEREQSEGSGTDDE

- structure string: "O=C(/C=C/N1[C@H]2CC[C@@H]1c1ncnc(NC3CC3)c1C2)c1ccccc1O"
  units label: "nM"
  Kd: 37.3

###

molecular target: SWI/SNF-related matrix-associated actin-dependent regulator of chromatin subfamily A member 4 (Homo sapiens); assay: Binding affinity to human SMARCA4 expressed in BL21 (DE3)-R3-BirA cells assessed as change in melting temperature at 10 uM by sypro-orange dye-based differential scanning fluorimetric analysis; assay type: cell-based
The molecules listed here are annotated with their ΔTm.
quantity name: ΔTm

- structure string: "CC(C)(C)OC(=O)N1CCN(/C=C/C(=O)c2ccccc2O)C2(CC2)C1"
  result: "6.1 °C"
- structure string: "CN(C)c1ncnc2c1CCN(/C=C/C(=O)c1ccccc1O)C2"
  result: "3.4 °C"
- structure string: "O=C(/C=C/N1CCN(c2cccc(OCc3ccncc3)n2)CC1)c1ccccc1O"
  result: "7.5 °C"
- structure string: "O=C(/C=C/N1[C@H]2CC[C@@H]1c1ncnc(NC3CC3)c1C2)c1ccccc1O"
  result: "7.4 °C"
- structure string: "O=C(/C=C/N1CC2CCC(CC2)C1)c1ccccc1O"
  result: "3.8 °C"
- structure string: "O=C(/C=C/N1CCc2c(ncn2Cc2ccccc2)C1)c1ccccc1O"
  result: "5.3 °C"
- structure string: "CN(C)/C=C/C(=O)c1ccccc1O"
  result: "3.3 °C"
- structure string: "O=C(/C=C/N1CCN(c2ncccn2)CC1)c1ccccc1O"
  result: "2.9 °C"
- structure string: "COc1cccc(C(=O)/C=C/N2CCCC2)c1O"
  result: "0.7 °C"
- structure string: "O=C(/C=C/N1CCc2cn[nH]c2C1)c1ccccc1O"
  result: "7 °C"
